Molecular target: RXFP3 (Homo sapiens, UniProt Q9NSD7)
Construct: purchased Promega (in-house HiBiT-GPCR construct library, NanoBRET)
Sequence (Q9NSD7 whole entry): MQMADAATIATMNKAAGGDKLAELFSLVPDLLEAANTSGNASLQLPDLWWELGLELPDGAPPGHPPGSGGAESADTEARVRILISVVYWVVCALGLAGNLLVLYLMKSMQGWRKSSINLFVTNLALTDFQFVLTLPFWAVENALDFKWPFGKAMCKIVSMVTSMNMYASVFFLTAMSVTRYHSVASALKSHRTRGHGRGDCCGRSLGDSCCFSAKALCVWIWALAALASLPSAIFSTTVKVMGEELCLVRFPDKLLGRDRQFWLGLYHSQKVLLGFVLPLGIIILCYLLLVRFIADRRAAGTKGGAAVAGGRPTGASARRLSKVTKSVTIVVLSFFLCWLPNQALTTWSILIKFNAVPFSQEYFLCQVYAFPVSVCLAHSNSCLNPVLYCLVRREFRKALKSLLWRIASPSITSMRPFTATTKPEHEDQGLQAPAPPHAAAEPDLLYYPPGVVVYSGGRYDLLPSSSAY
Assay: NanoBRET screen HiBiT-RXFP3 in HEK293
Format: binding
Settings: RXFP3; tracer 0.1μM
Procedure: Each tracer candidate was screened across the entire library of HiBiT-GPCR constructs using NanoBRET as the detection modality. As depicted in Figure 4A, the specificity of interactions was evaluated through decrease in BRET due to competitive displacement of a bound tracer by excess parental compound. Each tracer was analyzed for binding to each HiBiT-GPCR fusion in the absence and in the presence of competing parental compound. […]
Measurement type: NanoBRET Fold Response
Give bare numbers.

{"Compound": "COc1ccccc1N1CCN(CCCCN2C(=O)c3ccc(CNC(=O)CCOCCOCCOCCOCCNC(=O)CCc4ccc5n4[B-](F)(F)[N+]4=C(c6ccc[nH]6)C=CC4=C5)cc3C2=O)CC1", "NanoBRET Fold Response": 1.02}

// for each compound in input: emit NanoBRET Fold Response
1. O=C(CCc1ccc2n1[B-](F)(F)[N+]1=C(c3ccc[nH]3)C=CC1=C2)NCc1ccc(C(=O)NCCOCCC(=O)N[C@@H]2CC[C@@]3(O)[C@H]4Cc5ccc(O)c6c5[C@@]3(CCN4CC3CC3)[C@H]2O6)cc1 [Naltrexone-3-NB590]
2. CC(C)N(CC[C@H](c1ccccc1)c1cc(CCNC(=O)c2ccc(CNC(=O)CCc3ccc4n3[B-](F)(F)[N+]3=C(c5ccc[nH]5)C=CC3=C4)cc2)ccc1O)C(C)C
3. Cc1nc2n(c(=O)c1CCN1CCC(c3noc4cc(F)ccc34)CC1)CCCC2OC(=O)NCCOCCOCCOCCOCCNC(=O)CCc1ccc2n1[B-](F)(F)[N+]1=C(c3ccc[nH]3)C=CC1=C2 (stereo not shown)

[0.98, 1.01, 1.00]

This collection of values is drawn from paper PMC8151276.
